- tgt: T1, ZFP SBS#894 (synthetic)
- T1 chain: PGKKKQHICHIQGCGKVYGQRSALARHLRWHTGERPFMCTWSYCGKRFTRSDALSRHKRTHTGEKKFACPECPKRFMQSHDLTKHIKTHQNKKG
- protocol text: EMSA
- experimental parameters: tags: MBP fusion
quantity measured: Kd (nM)
// return numeric value only (unit: nM, not printed)

In: Find the recorded Kd belonging to TCAGTGGTAT (dsDNA) DNA 1: TCAGTGGTAT DNA 2: ATACCACTGA and report it.
Out: 6.15

Values from patent US20030068675
